- experimentalSystem: recombinant SARS-CoV-2 M^pro (Severe acute respiratory syndrome coronavirus 2 (2019-nCoV) (SARS-CoV-2))
- experimentalProtocol: Inhibition of SARS-CoV-2 M^pro enzyme activity (fluorescent substrate assay)
- Assay type: biochemical
- condition: inhibition of SARS-CoV-2 M^pro enzyme activity; values in nM; read-out: IC50
Criterion: IC50 strictly less than 20 nM. Met: condition met. Not met: condition not met.

Check out these entries, answers already filled in.
[
  {
    "compound": "C[C@@H](NC(=O)[C@@H]1C[C@@H]2[C@H](C1)C2(F)F)C(=O)N[C@H](Cc1ccccc1)C(=O)C(=O)NCc1ccccn1",
    "qualitativeLabel": "condition met"
  },
  {
    "compound": "COC[C@@H](NC(=O)c1ccc(F)cc1)C(=O)N[C@H](Cc1ccccc1)C(=O)C(=O)NCc1ccccn1",
    "qualitativeLabel": "condition not met"
  }
]

Is 20 nM strictly greater than the compound's reported IC50? compound: C[C@@H](NC(=O)c1cc(F)cc(Cl)c1)C(=O)N[C@H](Cc1ccccc1)C(=O)C(=O)NCc1ccc(Cl)cn1
condition not met

Consider next the compound CC(C)(NC(=O)CC1CCC(F)(F)CC1)C(=O)N[C@H](Cc1ccccc1)C(=O)C(=O)NCc1ccccn1 in the same way.
condition met

Would you kindly repeat that for C[C@@H](NC(=O)c1cccc(F)c1)C(=O)N[C@H](Cc1ccccc1)C(=O)C(=O)NCc1ccccn1 ?
condition not met

Try C[C@@H](NC(=O)COC1CCCCC1)C(=O)N[C@H](Cc1ccccc1)C(=O)C(=O)NCc1ccccn1 next.
condition not met

Then this compound: O=C(CCC(F)(F)F)NC1(C(=O)N[C@H](Cc2ccccc2)C(=O)C(=O)NCc2ccccn2)CCC1
condition not met
